System: T1, Nrd1_(6–151) wild-type (S. cerevisiae, UniProt P53617 6-151)
T1 sequence: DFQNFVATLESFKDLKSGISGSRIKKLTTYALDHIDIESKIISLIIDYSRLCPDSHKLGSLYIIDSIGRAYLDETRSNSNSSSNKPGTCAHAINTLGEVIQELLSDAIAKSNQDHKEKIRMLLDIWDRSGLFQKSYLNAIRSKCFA
Test: fluorescence polarisation
Where no end group is shown, it is not given here. [ ]: non-standard residue; d: D form. pS = N[C@@H](COP(=O)(O)O)C(=O)O
Readout kind: Kd

> print(dat)
                                     binder  readout.kind  result
1  Y[pS]PTSPSY[pS]PTSPS [unlabeled double-repeat CTD-Ser2P peptide]            Kd  390 µM
